This section presents compounds with their documented TGI values.
Test system: ACHN renal
experiment: NCI tumour cell line growth inhibition, 48 h

Reference set, count: 5
Under ACHN renal, report TGI for CCN(CCO)CCNc1ccc(C)c2sc3ccccc3c(=O)c12
15 µM

Under ACHN renal, report TGI for CS(=O)(=O)O[C@H]1[C@H](O)c2ccccc2[C@@H]1N=[N+]=[N-]
> 100 µM

Under ACHN renal, report TGI for CCOC(=O)N/N=C(\CC)OCC
> 100 µM

Under ACHN renal, report TGI for NC(=O)c1cc(Br)ccc1NC(=O)/C=C/c1ccccc1
> 100 µM

Under ACHN renal, report TGI for Cc1ccc(OCCOCCOCCOCCOCCOc2ccc(C)n(O)c2=S)c(=S)n1O
> 87.2 µM

Further cases:
Under ACHN renal, report TGI for CCC1(c2ccc(N)cc2)CCC(=O)NC1=O (stereo unspecified)
> 5000 µM
